biological target: HCV genotype 1b NS5B protein containing the S282T mutation (Hepatitis C virus genotype 1b, UniProt Q9WMX2, S2701T); construct: approximately 65 kDa HCV genotype 1b NS5B protein were used to generate recombinant HCV polymerases; assay: HCV polymerase enzyme assay, S282T mutant
pIC50: −log10 of the molar value.
recordedEndpoint: pIC50

| mol | recordedEndpoint | measValue |
| --- | --- | --- |
| C[C@@]1(N)[C@H](O)[C@@H](COP(=O)(O)OP(=O)(O)OP(=O)(O)O)O[C@H]1n1cnc2c(N)ncnc21 | pIC50 | < 5.00 |
| C[C@@]1(N=[N+]=[N-])[C@H](O)[C@@H](COP(=O)(O)OP(=O)(O)OP(=O)(O)O)O[C@H]1n1ccc(=O)[nH]c1=O | pIC50 | < 5.00 |
| C[C@@]1(N)[C@H](O)[C@@H](COP(=O)(O)OP(=O)(O)OP(=O)(O)O)O[C@H]1n1ccc(=O)[nH]c1=O | pIC50 | < 5.00 |
| C[C@@]1(C#N)[C@H](O)[C@@H](COP(=O)(O)OP(=O)(O)OP(=O)(O)O)O[C@H]1n1ccc(=O)[nH]c1=O | pIC50 | 5.00 to 6.00 |
| C[C@@]1(N=[N+]=[N-])[C@H](O)[C@@H](COP(=O)(O)OP(=O)(O)OP(=O)(O)O)O[C@H]1n1cnc2c(N)ncnc21 | pIC50 | < 5.00 |

---

biological target: wild-type HCV genotype 1b NS5B protein (recombinant HCV polymerase) (Hepatitis C virus genotype 1b, UniProt Q9WMX2); construct: approximately 65 kDa HCV genotype 1b NS5B protein were used to generate recombinant HCV polymerases; experiment: HCV polymerase enzyme assay, wild-type
pIC50: −log10 of the molar value.
# pIC50 listing for each entry below

| mol | pIC50 |
| --- | --- |
| C[C@@]1(C#N)[C@H](O)[C@@H](COP(=O)(O)OP(=O)(O)OP(=O)(O)O)O[C@H]1n1ccc(=O)[nH]c1=O | > 6.60 |
| C[C@@]1(N)[C@H](O)[C@@H](COP(=O)(O)OP(=O)(O)OP(=O)(O)O)O[C@H]1n1ccc(=O)[nH]c1=O | 5.00 to 6.00 |
| C[C@@]1(N)[C@H](O)[C@@H](COP(=O)(O)OP(=O)(O)OP(=O)(O)O)O[C@H]1n1cnc2c(N)ncnc21 | 5.00 to 6.00 |
| Nc1ccn([C@@H]2O[C@H](COP(=O)(O)OP(=O)(O)OP(=O)(O)O)[C@@H](O)[C@H]2N)c(=O)n1 | 6.00 to 6.60 |
| C[C@@]1(C#N)[C@H](O)[C@@H](COP(=O)(O)OP(=O)(O)OP(=O)(O)O)O[C@H]1n1ccc(N)nc1=O | 6.00 to 6.60 |
| C[C@@]1(N=[N+]=[N-])[C@H](O)[C@@H](COP(=O)(O)OP(=O)(O)OP(=O)(O)O)O[C@H]1n1cnc2c(N)ncnc21 | 6.00 to 6.60 |
| C[C@@]1(N)[C@H](O)[C@@H](COP(=O)(O)OP(=O)(O)OP(=O)(O)O)O[C@H]1n1ccc(N)nc1=O | 5.00 to 6.00 |
| C[C@@]1(N=[N+]=[N-])[C@H](O)[C@@H](COP(=O)(O)OP(=O)(O)OP(=O)(O)O)O[C@H]1n1ccc(=O)[nH]c1=O | 6.00 to 6.60 |

---

Measured CC50 at 72 h of individual entries
assay: Cytotoxicity evaluation, CellTiter-Blue Cell Viability Assay; conditions: human

| molecule | CC50 at 72 h |
| --- | --- |
| CC(C)OC(=O)[C@H](C)NP(=O)(OC[C@H]1O[C@@H](n2ccc(=O)[nH]c2=O)[C@](C)(N=[N+]=[N-])[C@@H]1O)Oc1ccccc1 (single isomer, unassigned) [Reference Compound A18 Diastereomer 1, reference compound] | > 50 µM |
| CC(C)OC(=O)[C@H](C)NP(=O)(OC[C@H]1O[C@@H](n2ccc(N)nc2=O)[C@H](N=[N+]=[N-])[C@@H]1O)Oc1ccccc1 (mixture of isomers) [Compound 530 Diastereomer Mix] | > 50 µM |
